Data credit: patent US11873298B2

For each of the molecules below, state its IC50.
- MEASURED_ON: SCD1 (Homo sapiens)
- Construct: host or cells: S. cerevisiae ole1Δ strain (W303 pdr1Δ pdr3Δ background), plasmid pRS316 with TDH3 promoter and CYC1 terminator
- Sequence (O00767 1-359): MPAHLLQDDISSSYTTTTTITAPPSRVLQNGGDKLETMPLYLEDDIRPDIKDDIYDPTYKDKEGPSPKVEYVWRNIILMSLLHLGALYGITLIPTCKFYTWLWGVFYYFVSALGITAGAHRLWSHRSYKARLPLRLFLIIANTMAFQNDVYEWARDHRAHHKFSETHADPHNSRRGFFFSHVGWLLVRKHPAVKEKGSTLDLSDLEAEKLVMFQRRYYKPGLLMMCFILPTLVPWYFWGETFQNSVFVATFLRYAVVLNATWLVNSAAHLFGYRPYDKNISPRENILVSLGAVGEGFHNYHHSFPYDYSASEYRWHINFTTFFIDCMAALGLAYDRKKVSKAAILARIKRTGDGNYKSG
- ASSAY_COMMENT: Growth inhibition of humanized yeast strain expressing SCD1 as sole desaturase
- Assay type: cell-based
- MEASUREMENT_CONDITIONS: yeast strain expressing human SCD1 as sole desaturase; Table 8
API: value field is a number in µM; no unit string.

-- ask Give the reported IC50 for this molecule. CC(C)(C)OC(=O)N1CCC(c2noc(-c3ccc4cnn([C@H]5CCOC5)c4c3)n2)CC1
-- reply 1.4

-- ask Give the reported IC50 for this molecule. CC(C)(C)OC(=O)N1CCC(c2cc(-c3cnc4cnn(C5CCOC5)c4c3)on2)CC1 (centres unmarked)
-- reply 24.7

-- ask Give the reported IC50 for this molecule. Cc1cc(-c2nc(C3CCN(C(=O)OC(C)(C)C)CC3)no2)cc(C2CCOC2)n1 (centres unmarked)
-- reply 31.7

-- ask Give the reported IC50 for this molecule. COC(=O)N1CCC(c2noc(-c3ccnc(-c4cnn(C)c4)c3)n2)CC1
-- reply 13.5

-- ask Give the reported IC50 for this molecule. CC1(OC(=O)N2CCC(c3noc(-c4ccc5cnn([C@H]6CCOC6)c5c4)n3)CC2)CC1
-- reply 12.6
